Cited source: patent US20250136687A1

- tested_on: human CD3 on the cell surface (Jurkat cells, expanded human T cells, Jurkat-Lucia NFAT cells, human PBMC) (human, UniProt P07766 23-207; P04234 22-171; P09693 23-182)
- Sequence (P07766 23-207, chain 1 of 3): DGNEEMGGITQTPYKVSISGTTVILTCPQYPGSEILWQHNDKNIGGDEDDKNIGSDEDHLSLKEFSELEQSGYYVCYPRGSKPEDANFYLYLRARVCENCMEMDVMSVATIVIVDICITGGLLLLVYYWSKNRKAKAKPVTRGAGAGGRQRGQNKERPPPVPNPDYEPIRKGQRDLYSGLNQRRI
- Sequence (P04234 22-171, chain 2 of 3): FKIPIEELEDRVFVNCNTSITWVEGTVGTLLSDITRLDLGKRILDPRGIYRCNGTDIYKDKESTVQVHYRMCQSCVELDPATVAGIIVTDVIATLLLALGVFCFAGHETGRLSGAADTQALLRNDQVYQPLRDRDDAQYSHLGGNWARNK
- Sequence (P09693 23-182, chain 3 of 3): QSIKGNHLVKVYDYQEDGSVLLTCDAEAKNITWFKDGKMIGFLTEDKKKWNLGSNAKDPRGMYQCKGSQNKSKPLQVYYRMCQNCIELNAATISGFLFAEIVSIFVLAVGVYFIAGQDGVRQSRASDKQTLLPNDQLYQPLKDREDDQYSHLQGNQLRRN
- test_name: cell-based or functional assay
measurement_kind: Reporter assay (RLU), Jurkat-Lucia NFAT, supernatant diluted by 4 times
A number alone suffices; assume RLU.

Reported Reporter assay (RLU), Jurkat-Lucia NFAT, supernatant diluted by 4 times ( 1-22.6 murine hybridoma antibody (supernatant) (antibody, V domains shown, Tested as hybridoma supernatant) VH: QIPLVQSGPELKKPGETVKISCKTSGYTFTSYGMSWVKQAPGKGLKWMGWINTYSGVPTYADDFKGRFVFSLDTSASTAFLQINNLKNEDTATYFCARLKNNPFCWGQGSTLTVFS VL: DVLMTQSPLSLPVRLGDQASISCRSSQLILHSNGNTYLEWYLQKPGQSPKLLIYKVSNRFSGVPDRFSGSGSGTDFTLKISRVEAEDLGVYYCFQGSHFPWTFGGGTKLEIK ) = 16000

Reported Reporter assay (RLU), Jurkat-Lucia NFAT, supernatant diluted by 4 times ( 6-44.5 murine hybridoma antibody (supernatant) (antibody, V domains shown, Tested as hybridoma supernatant) VH: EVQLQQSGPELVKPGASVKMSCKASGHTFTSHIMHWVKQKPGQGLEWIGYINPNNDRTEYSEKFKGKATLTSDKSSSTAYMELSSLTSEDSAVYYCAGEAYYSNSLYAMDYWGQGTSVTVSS VL: DIVMSQSPSSLAVSAGEKVTMSCKSSQSLFNSRTRKNYLAWYQQKPGQSPELLIYWASTRESGVPVRFTGSGSGTDFTLTISSVQAEDLAVYYCKQSYYLRTFGGGTKLEVK ) = 26200

Reported Reporter assay (RLU), Jurkat-Lucia NFAT, supernatant diluted by 4 times ( 6-35.22 murine hybridoma antibody (supernatant) (antibody, V domains shown, Tested as hybridoma supernatant) VH: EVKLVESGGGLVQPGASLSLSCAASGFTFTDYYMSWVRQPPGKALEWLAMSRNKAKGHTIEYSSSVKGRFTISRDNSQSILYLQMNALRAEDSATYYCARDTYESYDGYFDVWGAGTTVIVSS VL: DIVMSQSPSSLAVSAGETVTMSCKSSQSLFNSRSRKNYLAWYQQKPGQTPKLLIYWASIRESGVPDRFTGSGSGTDFTLTISSVQAEDLAVYYCKQSYYLYTFGSGTKLEIK ) = 29000
